These data points were gathered from patent US20240400654A1.

- targetUnderTest: HRgpA-6H (Porphyromonas gingivalis) (UniProt P28784)
- testDetails: ELISA, FASEBA screening, coated HRgpA-6H 0.0625 ug/ml
observationType: OD450 nm
Hey, just send me the number, nothing else.

Lookup: Which OD450 nm is listed for KB001 parental mouse Fab FASEBA variant VH K64E (Fab, V domains shown) VH: EVQLKQSGPGLVAPSQSLSITCTVSGFSLSIYSVHWVRQPPGKGLEWLGMIWGGGSSDYNSALESRLSISKDNSKSQVFLKMNSLQTDDTAMYYCARNGNFYAMDYWGQGTSVTVSS VL: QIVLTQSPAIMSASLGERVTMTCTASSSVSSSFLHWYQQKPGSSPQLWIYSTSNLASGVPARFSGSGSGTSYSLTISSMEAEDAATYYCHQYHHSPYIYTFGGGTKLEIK ?
Found: 0.789

Lookup: Item KB001 parental mouse Fab FASEBA variant VH K64L (Fab, V domains shown) VH: EVQLKQSGPGLVAPSQSLSITCTVSGFSLSIYSVHWVRQPPGKGLEWLGMIWGGGSSDYNSALLSRLSISKDNSKSQVFLKMNSLQTDDTAMYYCARNGNFYAMDYWGQGTSVTVSS VL: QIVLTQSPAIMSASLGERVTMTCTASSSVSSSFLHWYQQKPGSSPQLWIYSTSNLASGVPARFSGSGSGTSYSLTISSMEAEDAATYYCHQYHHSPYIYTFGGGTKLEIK has what recorded OD450 nm?
Found: 0.664

Lookup: Value lookup for OD450 nm; key = KB001 parental mouse Fab FASEBA variant VH N100Q (Fab, V domains shown) VH: EVQLKQSGPGLVAPSQSLSITCTVSGFSLSIYSVHWVRQPPGKGLEWLGMIWGGGSSDYNSALKSRLSISKDNSKSQVFLKMNSLQTDDTAMYYCARNGQFYAMDYWGQGTSVTVSS VL: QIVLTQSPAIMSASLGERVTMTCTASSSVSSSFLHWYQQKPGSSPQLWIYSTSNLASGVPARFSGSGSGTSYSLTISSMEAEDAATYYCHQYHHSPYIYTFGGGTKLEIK
Found: 0.846

Lookup: # get_value(readout='OD450 nm', item= KB001 parental mouse Fab FASEBA variant VH Y106K (Fab, V domains shown) VH: EVQLKQSGPGLVAPSQSLSITCTVSGFSLSIYSVHWVRQPPGKGLEWLGMIWGGGSSDYNSALKSRLSISKDNSKSQVFLKMNSLQTDDTAMYYCARNGNFYAMDKWGQGTSVTVSS VL: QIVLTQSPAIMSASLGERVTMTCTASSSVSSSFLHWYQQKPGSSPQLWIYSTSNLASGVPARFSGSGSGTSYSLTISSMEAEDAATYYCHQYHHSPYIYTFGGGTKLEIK )
Found: 0.767

Lookup: # input binder: KB001 parental mouse Fab FASEBA variant VH M104V (Fab, V domains shown) VH: EVQLKQSGPGLVAPSQSLSITCTVSGFSLSIYSVHWVRQPPGKGLEWLGMIWGGGSSDYNSALKSRLSISKDNSKSQVFLKMNSLQTDDTAMYYCARNGNFYAVDYWGQGTSVTVSS VL: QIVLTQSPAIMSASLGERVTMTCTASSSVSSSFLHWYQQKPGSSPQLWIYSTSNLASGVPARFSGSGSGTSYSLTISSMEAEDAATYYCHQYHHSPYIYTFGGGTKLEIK ; wanted: its OD450 nm
Found: 0.654
